# Tested on: 616215-338-R-J1-PDC tumor spheroids, viability
# testName: Anticancer human tumor 616215-338-R-J1-PDC patient-derived colon adenocarcinoma cell line growth inhibition [GQUAD]
# conditionInfo: second compound 1 µM; first compound 3.16 µM; active compounds read low; spheroids with HUVEC and MSC
# Source text: DNA G-quadruplex Stabilizer Agents in Combinations in Complex Spheroids A high-throughput screen of multi-cell type tumor spheroids was designed to identify active combinations of DNA G-quadruplex stabilizer agents and targeted small molecules. […] Compounds. […] If the clinical Cmax for an agent had not been determined, the highest concentration tested was 10 microM. […]
readoutType: viability, T/C (%)
Give the value in % but do not write % after it.

Q: State its viability, T/C on 616215-338-R-J1-PDC tumor spheroids, viability: COc1cccc2c1C(=O)c1c(O)c3c(c(O)c1C2=O)CC(O)(C(=O)CO)CC3OC1CC(N)C(O)C(C)O1 (stereo not given) + Cc1[nH]c2ccc(F)cc2c1-c1nc2c3cccnc3c3ncccc3c2[nH]1
Ans: 27.6

Q: // lookup viability, T/C | system=616215-338-R-J1-PDC tumor spheroids, viability | key= C=CC(=O)N1CCN(c2nc(=O)n(-c3c(C)ccnc3C(C)C)c3nc(-c4c(O)cccc4F)c(F)cc23)C(C)C1 (stereo not given) + Cc1cnc(CNC(=O)c2c(=O)c3ccc(N4CCCN(C)CC4)nc3n3c2sc2ccccc23)cn1
Ans: 38

Next:
Q: Find the measured viability, T/C: item O=C(c1cc(Cc2n[nH]c(=O)c3ccccc23)ccc1F)N1CCN(C(=O)C2CC2)CC1 + CN(C)c1ccc(Nc2c3ccc(NC(=O)CCN4CCCC4)cc3nc3cc(NC(=O)CCN4CCCC4)ccc23)cc1 , target or system 616215-338-R-J1-PDC tumor spheroids, viability.
Ans: 104

Q: Recorded viability, T/C for CC(=O)O[C@H]1C(=O)[C@@]2(C)[C@H]([C@H](OC(=O)c3ccccc3)[C@]3(O)C[C@H](OC(=O)[C@H](O)[C@@H](NC(=O)c4ccccc4)c4ccccc4)C(C)=C1C3(C)C)[C@]1(OC(C)=O)CO[C@@H]1C[C@@H]2O + Cc1cnc(CNC(=O)c2c(=O)c3ccc(N4CCCN(C)CC4)nc3n3c2sc2ccccc23)cn1 with 616215-338-R-J1-PDC tumor spheroids, viability, please?
Ans: 30.2

Q: What value of viability, T/C on 616215-338-R-J1-PDC tumor spheroids, viability does CC(C)(O)C1CCC(Nc2ccc3ncc(-c4cccc(C(F)(F)F)c4)n3n2)CC1 (stereo not given) + CN(C)c1ccc(Nc2c3ccc(NC(=O)CCN4CCCC4)cc3nc3cc(NC(=O)CCN4CCCC4)ccc23)cc1 have?
Ans: 2.03

Q: Given the entry C=CC(=O)N1CCN(c2nc(=O)n(-c3c(C)ccnc3C(C)C)c3nc(-c4c(O)cccc4F)c(F)cc23)C(C)C1 (stereo not given) + CN(C)c1ccc(Nc2c3ccc(NC(=O)CCN4CCCC4)cc3nc3cc(NC(=O)CCN4CCCC4)ccc23)cc1 , what viability, T/C was observed with 616215-338-R-J1-PDC tumor spheroids, viability?
Ans: 91.6

Q: Field: viability, T/C (616215-338-R-J1-PDC tumor spheroids, viability). Entry: COc1ccc([C@@H](O)c2cc(-c3ncnc4cc(N5CCOCC5)ccc34)c(F)cc2Cl)nn1 + Cc1[nH]c2ccc(F)cc2c1-c1nc2c3cccnc3c3ncccc3c2[nH]1
Ans: 90.2

Q: Entry CCCS(=O)(=O)Nc1ccc(F)c(C(=O)c2c[nH]c3ncc(-c4ccc(Cl)cc4)cc23)c1F + CN(C)c1ccc(Nc2c3ccc(NC(=O)CCN4CCCC4)cc3nc3cc(NC(=O)CCN4CCCC4)ccc23)cc1 , system 616215-338-R-J1-PDC tumor spheroids, viability: what viability, T/C was measured?
Ans: 97.3

Q: Form: Entry = O=C(c1cc(Cc2n[nH]c(=O)c3ccccc23)ccc1F)N1CCN(C(=O)C2CC2)CC1 + Cc1cnc(CNC(=O)c2c(=O)c3ccc(N4CCCN(C)CC4)nc3n3c2sc2ccccc23)cn1 | System = 616215-338-R-J1-PDC tumor spheroids, viability | viability, T/C = ____
Ans: 38.5

Q: Form entry - test system: 616215-338-R-J1-PDC tumor spheroids, viability; read-out: viability, T/C; molecule: O=C(c1cc(Cc2n[nH]c(=O)c3ccccc23)ccc1F)N1CCN(C(=O)C2CC2)CC1 + Cc1[nH]c2ccc(F)cc2c1-c1nc2c3cccnc3c3ncccc3c2[nH]1
Ans: 85.9

Q: Entry CC1COCCN1c1cc(-c2ccnn2C)c2ccnc(-c3ccn[nH]3)c2n1 (stereo not given) + Cc1cnc(CNC(=O)c2c(=O)c3ccc(N4CCCN(C)CC4)nc3n3c2sc2ccccc23)cn1 , system 616215-338-R-J1-PDC tumor spheroids, viability: what viability, T/C was measured?
Ans: 19.6

Q: Request body: readout viability, T/C, system 616215-338-R-J1-PDC tumor spheroids, viability, query CC1COCCN1c1cc(C2(S(C)(=N)=O)CC2)nc(-c2ccnc3[nH]ccc23)n1 (stereo not given) + Cc1[nH]c2ccc(F)cc2c1-c1nc2c3cccnc3c3ncccc3c2[nH]1 . Return the value.
Ans: 81.5

Q: API: value(readout= viability, T/C, system= 616215-338-R-J1-PDC tumor spheroids, viability, query= C#Cc1c(F)ccc2cc(O)cc(-c3ncc4c(N5CC6CCC(C5)N6)nc(OCC56CCCN5CC(F)C6)nc4c3F)c12 (stereo not given) + Cc1[nH]c2ccc(F)cc2c1-c1nc2c3cccnc3c3ncccc3c2[nH]1 );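 also: spheroids exposed to agents for 7 days before readout; percent viability relative to DMSO vehicle control wells taken as 100%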
Ans: 83.8

Q: 616215-338-R-J1-PDC tumor spheroids, viability / viability, T/C / CC1COCCN1c1cc(C2(O)CC3CCC(C2)O3)c2cnn(-c3ccn[nH]3)c2n1 (stereo not given) + Cc1[nH]c2ccc(F)cc2c1-c1nc2c3cccnc3c3ncccc3c2[nH]1 : value?
Ans: 23.2

Q: Give the reported viability, T/C for C#Cc1c(F)ccc2cc(O)cc(-c3ncc4c(N5CC6CCC(C5)N6)nc(OCC56CCCN5CC(F)C6)nc4c3F)c12 (stereo not given) + Cc1cnc(CNC(=O)c2c(=O)c3ccc(N4CCCN(C)CC4)nc3n3c2sc2ccccc23)cn1 (system: 616215-338-R-J1-PDC tumor spheroids, viability).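 Also: spheroids exposed to agents for 7 days before readout; percent viability relative to DMSO vehicle control wells taken as 100%.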
Ans: 20.8

Q: For 616215-338-R-J1-PDC tumor spheroids, viability, provide viability, T/C of O=c1[nH]cc(F)c(=O)[nH]1 + CN(C)c1ccc(Nc2c3ccc(NC(=O)CCN4CCCC4)cc3nc3cc(NC(=O)CCN4CCCC4)ccc23)cc1 please.
Ans: 31.2

Q: Please provide the recorded viability, T/C for CC1COCCN1c1cc(-c2ccnn2C)c2ccnc(-c3ccn[nH]3)c2n1 (stereo not given) + CN(C)c1ccc(Nc2c3ccc(NC(=O)CCN4CCCC4)cc3nc3cc(NC(=O)CCN4CCCC4)ccc23)cc1 , tested on 616215-338-R-J1-PDC tumor spheroids, viability.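 Also: spheroids exposed to agents for 7 days before readout; percent viability relative to DMSO vehicle control wells taken as 100%.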
Ans: 18.8

Q: Find the measured viability, T/C: item Nc1ccn(C2OC(CO)C(O)C2(F)F)c(=O)n1 (stereo not given) + Cc1cnc(CNC(=O)c2c(=O)c3ccc(N4CCCN(C)CC4)nc3n3c2sc2ccccc23)cn1 , target or system 616215-338-R-J1-PDC tumor spheroids, viability.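 Also: spheroids exposed to agents for 7 days before readout; percent viability relative to DMSO vehicle control wells taken as 100%.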
Ans: 18.3

Q: Lab note: need viability, T/C for Cc1cccc(N(C)C(=O)C2C(O)CCN2c2nc(C)cc(C(F)(F)F)c2C#N)c1 (stereo not given) + CN(C)c1ccc(Nc2c3ccc(NC(=O)CCN4CCCC4)cc3nc3cc(NC(=O)CCN4CCCC4)ccc23)cc1 on 616215-338-R-J1-PDC tumor spheroids, viability, anyone have it?
Ans: 102

Q: Which viability, T/C is reported with 616215-338-R-J1-PDC tumor spheroids, viability for this entry: Cc1cccc(N(C)C(=O)C2C(O)CCN2c2nc(C)cc(C(F)(F)F)c2C#N)c1 (stereo not given) + Cc1cnc(CNC(=O)c2c(=O)c3ccc(N4CCCN(C)CC4)nc3n3c2sc2ccccc23)cn1 ?
Ans: 38.3
